Tgt: d-enCas12a-Ultra (Acidaminococcus sp., UniProt U2UMQ6 1-1307, E174R;S542R;K548R;M537R;F870L;D908A;E993A;D1235A)
Method Summary: Spec-seq (native PAGE EMSA with sequencing of bound and unbound); 25 mM Tris-HCl pH 7.4, 150 mM KCl, 5 mM MgCl2, 10% glycerol, 1 mM DTT, 40 ng/uL salmon sperm DNA; 400 nM Cas12a, 480 nM crRNA, 50 nM library, 37 C 1 h; native PAGE at room temperature; high values mean tight binding;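 note: relative affinity from the bound to unbound sequence frequency ratio in Spec-seq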
Measurement Conditions: protein: recombinant
binding signal by entry:
Dear colleague, please return just the value in lnKA, with no unit written.

Here are 2 binders together with their reported answers.
Binder | Unit Tag | Readout Value
GTGT (dsDNA) DNA 1: GCTATCTAGTGCTCAGTACGCACTGGTGTAGGAAACTTCTGGCAGGACCAGGTCATGAGATCGGAAGAGCACACGTCTGAACTCCAGTCA DNA 2: TGACTGGAGTTCAGACGTGTGCTCTTCCGATCTCATGACCTGGTCCTGCCAGAAGTTTCCTACACCAGTGCGTACTGAGCACTAGATAGC RNA: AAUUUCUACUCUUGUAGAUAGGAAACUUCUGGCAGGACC | lnKA | -3.14
AAGA (dsDNA) DNA 1: GCTATCTAGTGCTCAGTACGCACTGAAGAAGGAAACTTCTGGCAGGACCAGGTCATGAGATCGGAAGAGCACACGTCTGAACTCCAGTCA DNA 2: TGACTGGAGTTCAGACGTGTGCTCTTCCGATCTCATGACCTGGTCCTGCCAGAAGTTTCCTTCTTCAGTGCGTACTGAGCACTAGATAGC RNA: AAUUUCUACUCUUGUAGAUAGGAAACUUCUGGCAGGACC | lnKA | -3.38

Can you share its binding signal? I mean this binder: CCGC (dsDNA) DNA 1: GCTATCTAGTGCTCAGTACGCACTGCCGCAGGAAACTTCTGGCAGGACCAGGTCATGAGATCGGAAGAGCACACGTCTGAACTCCAGTCA DNA 2: TGACTGGAGTTCAGACGTGTGCTCTTCCGATCTCATGACCTGGTCCTGCCAGAAGTTTCCTGCGGCAGTGCGTACTGAGCACTAGATAGC RNA: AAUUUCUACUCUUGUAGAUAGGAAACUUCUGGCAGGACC
-3.33

Using the record for AGTG (dsDNA) DNA 1: GCTATCTAGTGCTCAGTACGCACTGAGTGAGGAAACTTCTGGCAGGACCAGGTCATGAGATCGGAAGAGCACACGTCTGAACTCCAGTCA DNA 2: TGACTGGAGTTCAGACGTGTGCTCTTCCGATCTCATGACCTGGTCCTGCCAGAAGTTTCCTCACTCAGTGCGTACTGAGCACTAGATAGC RNA: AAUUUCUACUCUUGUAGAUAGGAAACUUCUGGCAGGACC , report its binding signal.
-1.18

Can you look up the measured binding signal of ACAG (dsDNA) DNA 1: GCTATCTAGTGCTCAGTACGCACTGACAGAGGAAACTTCTGGCAGGACCAGGTCATGAGATCGGAAGAGCACACGTCTGAACTCCAGTCA DNA 2: TGACTGGAGTTCAGACGTGTGCTCTTCCGATCTCATGACCTGGTCCTGCCAGAAGTTTCCTCTGTCAGTGCGTACTGAGCACTAGATAGC RNA: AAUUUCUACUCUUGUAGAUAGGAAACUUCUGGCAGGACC for me?
-3.45
